Recorded values, source patent US20230158141A1.

MEASUREMENT TARGET: T1, IL-10R1-Fc (UniProt Q13651 22-235, limits assumed)
T1 sequence (looked up): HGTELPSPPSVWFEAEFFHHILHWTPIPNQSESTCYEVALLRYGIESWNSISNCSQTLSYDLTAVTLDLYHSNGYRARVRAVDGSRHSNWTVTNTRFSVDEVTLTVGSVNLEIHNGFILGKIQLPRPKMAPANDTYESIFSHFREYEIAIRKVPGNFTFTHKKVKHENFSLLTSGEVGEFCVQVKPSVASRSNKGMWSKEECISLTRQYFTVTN
EXPERIMENTAL PROTOCOL: ELISA, IL-10R1-Fc coated
ASSAY READOUT: Decreased fold of binding to ligand after Conjugating with S48

binder="IL-10 Asn18Cys-S48 (ligand, human, UniProt P22301 19-178, looked up, S48 on Cys 18, mature) SPGQGTQSENSCTHFPGCLPNMLRDLRDAFSRVKTFFQMKDQLDNLLLKESLLEDFKGYLGCQALSEMIQFYLEEVMPQAENQDPDIKAHVNSLGENLKTLRLRLRRCHRFLPCENKSKAVEQVKNAFNKLQEKGIYKAMSEFDIFINYIEAYMTMKIRN" result="12 fold"
